Recorded RF, Dioxane/Water/Hydrochloric acid (conc.), mobile phase V values for a group of molecules are listed next.
Test: Reverse-phase thin-layer chromatographic lipophilicity (RF, RM0)
Type: physicochemical
Settings: RP-18 silica; V = 50%Dioxane/45%H2O/5%HCl
Response field accepts a number only; no unit should be typed.

# lookup: RF, Dioxane/Water/Hydrochloric acid (conc.), mobile phase V of FC(F)(F)c1ccc2c(NCCNCC34CC5CC(CC(C5)C3)C4)ccnc2c1 [Compound 6]
0.49

----------
Experiment: Reverse-phase thin-layer chromatographic lipophilicity (RF, RM0)
Type: physicochemical
Details: RP-18 silica; V = 60%AC/35%H2O/5%HCl
Measurement label: RF, Acetone/Water/Hydrochloric acid (conc.), mobile phase V

- Molecule: "Clc1ccc2c(NCCCN3CCN(CCCNCC45CC6CC(CC(C6)C4)C5)CC3)ccnc2c1"
  Result: 0.61
- Molecule: "Clc1ccc2c(NCCCCN(CCC34CC5CC(CC(C5)C3)C4)CCC34CC5CC(CC(C5)C3)C4)ccnc2c1"
  Result: 0.13
- Molecule: "Clc1ccc2c(NCCCCCCCCNCC34CC5CC(CC(C5)C3)C4)ccnc2c1"
  Result: 0.39
- Molecule: "CC(CCNCC12CC3CC(CC(C3)C1)C2)Nc1ccnc2cc(C(F)(F)F)ccc12 (centres unmarked)"
  Result: 0.4

# lookup: RF, Acetone/Water/Hydrochloric acid (conc.), mobile phase V of FC(F)(F)c1ccc2c(NCCNCC34CC5CC(CC(C5)C3)C4)ccnc2c1
0.45

# lookup: RF, Acetone/Water/Hydrochloric acid (conc.), mobile phase V of Clc1ccc2c(Nc3cccc4c(NCCC56CC7CC(CC(C7)C5)C6)cccc34)ccnc2c1
0.3

# lookup: RF, Acetone/Water/Hydrochloric acid (conc.), mobile phase V of CC(CCNCCC12CC3CC(CC(C3)C1)C2)Nc1ccnc2cc(Cl)ccc12 (centres unmarked)
0.38

# lookup: RF, Acetone/Water/Hydrochloric acid (conc.), mobile phase V of CC(CCNCCC12CC3CC(CC(C3)C1)C2)Nc1ccnc2ccccc12 (centres unmarked)
0.44

# lookup: RF, Acetone/Water/Hydrochloric acid (conc.), mobile phase V of CC(CCNCC12CC3CC(CC(C3)C1)C2)Nc1ccnc2cc(Cl)ccc12 (centres unmarked)
0.48

# lookup: RF, Acetone/Water/Hydrochloric acid (conc.), mobile phase V of Clc1ccc2c(Nc3cccc(NCC45CC6CC(CC(C6)C4)C5)c3)ccnc2c1
0.4

# lookup: RF, Acetone/Water/Hydrochloric acid (conc.), mobile phase V of CC(CCNCC12CC3CC(CC(C3)C1)C2)Nc1ccnc2ccccc12 (centres unmarked)
0.45

# lookup: RF, Acetone/Water/Hydrochloric acid (conc.), mobile phase V of Clc1ccc2c(NCCCCNCC34CC5CC(CC(C5)C3)C4)ccnc2c1
0.51

# lookup: RF, Acetone/Water/Hydrochloric acid (conc.), mobile phase V of Clc1ccc2c(NCCCCCN(CCC34CC5CC(CC(C5)C3)C4)CCC34CC5CC(CC(C5)C3)C4)ccnc2c1
0.12

# lookup: RF, Acetone/Water/Hydrochloric acid (conc.), mobile phase V of Clc1ccc2c(N3CCN(CCC45CC6CC(CC(C6)C4)C5)CC3)ccnc2c1
0.44
